Test system: KM12 colon
measurement description: NCI-60 one-dose screen, 48 h (100 = growth as untreated, 0 = no growth, -100 = all killed)
assay setup: 10 µM unless noted
The panel holds about 83,000 compounds, 20% with a hit somewhere; the sample as a whole holds those more often.
observation type: growth (%)
Give just the numeric value; % need not be written.

COC1=CC(c2ccc[nH]2)=N/C1=C\c1[nH]c(C)c(CC(=O)NCc2ccccc2)c1C -46.1
COc1cc(-c2csc(NC(=O)c3ccc(N4CCOCC4)c(C(F)(F)F)c3)n2)cc(OC)c1OC 16.9
CCCNC(=O)Nc1ccc2cc3ccc(NC(=O)NCCC)cc3nc2c1 70.9
COc1cc2ncnc(Nc3ccc(F)c(Cl)c3)c2cc1OCC(=O)N1CCN(c2ccccc2)CC1 102

Turning now to a further record.
Q: May I ask what growth has been recorded for `N#Cc1nc(-c2ccc(F)cc2)oc1S(=O)(=O)N1CCOCC1` ?
Result: 102
